System: Staphylococcus aureus
Experiment: Antibacterial activity against Staphylococcus aureus ATCC 9144 at 50 to 100 ug/ml by cup-plate method
Type: functional
property: Activity (%)
Give the value in % but do not write % after it.

Value (Activity, Staphylococcus aureus) for record O=C1C(Cl)C(c2ccccc2[N+](=O)[O-])N1c1ccc(-n2c(Cc3ccccc3Nc3c(Cl)cccc3Cl)nc3ccc(Br)cc3c2=O)cc1 (stereo not given) = 36.75

Value (Activity, Staphylococcus aureus) for record "COc1ccc(/C=N/c2ccc(-n3c(Cc4ccccc4Nc4c(Cl)cccc4Cl)nc4ccc(Br)cc4c3=O)cc2)cc1" = 53.85

Value (Activity, Staphylococcus aureus) for record O=C1C(Cl)C(c2cccc([N+](=O)[O-])c2)N1c1ccc(-n2c(Cc3ccccc3Nc3c(Cl)cccc3Cl)nc3ccc(Br)cc3c2=O)cc1 (stereo not given) = 29.73

Value (Activity, Staphylococcus aureus) for record COc1ccc(C2C(Cl)C(=O)N2c2ccc(-n3c(Cc4ccccc4Nc4c(Cl)cccc4Cl)nc4ccc(Br)cc4c3=O)cc2)c(O)c1 (stereo not given) = 58.33

Value (Activity, Staphylococcus aureus) for record "O=c1c2cc(Br)ccc2nc(Cc2ccccc2Nc2c(Cl)cccc2Cl)n1-c1ccc(/N=C/c2ccc(Cl)cc2)cc1" = 50.88

Value (Activity, Staphylococcus aureus) for record "O=c1c2cc(Br)ccc2nc(Cc2ccccc2Nc2c(Cl)cccc2Cl)n1-c1ccc(/N=C/c2ccccc2Cl)cc1" = 50.98

Value (Activity, Staphylococcus aureus) for record "CCN(CC)c1ccc(/C=N/c2ccc(-n3c(Cc4ccccc4Nc4c(Cl)cccc4Cl)nc4ccc(Br)cc4c3=O)cc2)c(O)c1" = 0

Value (Activity, Staphylococcus aureus) for record "O=c1c2cc(Br)ccc2nc(Cc2ccccc2Nc2c(Cl)cccc2Cl)n1-c1ccc(/N=C/c2cccc([N+](=O)[O-])c2)cc1" = 29.73

Value (Activity, Staphylococcus aureus) for record COc1ccc(C2C(Cl)C(=O)N2c2ccc(-n3c(Cc4ccccc4Nc4c(Cl)cccc4Cl)nc4ccc(Br)cc4c3=O)cc2)cc1 (stereo not given) = 60.94

Value (Activity, Staphylococcus aureus) for record "COc1ccc(/C=N/c2ccc(-n3c(Cc4ccccc4Nc4c(Cl)cccc4Cl)nc4ccc(Br)cc4c3=O)cc2)c(O)c1" = 50

Value (Activity, Staphylococcus aureus) for record COc1cc(C2C(Cl)C(=O)N2c2ccc(-n3c(Cc4ccccc4Nc4c(Cl)cccc4Cl)nc4ccc(Br)cc4c3=O)cc2)cc(OC)c1OC (stereo not given) = 58.33

Value (Activity, Staphylococcus aureus) for record "O=c1c2cc(Br)ccc2nc(Cc2ccccc2Nc2c(Cl)cccc2Cl)n1-c1ccc(/N=C/c2ccc(O)cc2)cc1" = 34.85
